Biological target: 5-hydroxytryptamine receptor 1A (Rattus norvegicus, UniProt P19327)
Sequence (P19327 whole entry): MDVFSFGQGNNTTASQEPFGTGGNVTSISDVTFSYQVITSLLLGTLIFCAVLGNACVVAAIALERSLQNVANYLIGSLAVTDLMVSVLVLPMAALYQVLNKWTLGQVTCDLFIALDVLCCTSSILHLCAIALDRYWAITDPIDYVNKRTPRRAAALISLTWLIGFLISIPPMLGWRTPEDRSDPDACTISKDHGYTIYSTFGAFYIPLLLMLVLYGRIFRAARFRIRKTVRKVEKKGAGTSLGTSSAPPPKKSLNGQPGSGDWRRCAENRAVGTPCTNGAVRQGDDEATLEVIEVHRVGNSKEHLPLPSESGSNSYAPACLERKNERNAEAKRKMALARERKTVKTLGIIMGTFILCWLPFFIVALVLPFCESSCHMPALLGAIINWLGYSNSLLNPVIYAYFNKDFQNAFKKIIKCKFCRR
measure name: log10(Ki) (log10 of the value in µM)
Each number you see is log10 of Ki, and the unit inside the log is µM.

The examples below pair each entry with its known result.
Prompt: Look up 5-hydroxytryptamine receptor 1A (Rattus norvegicus, UniProt P19327) data: log10(Ki) of CN1C[C@H](CNC(=O)OCc2ccccc2)C[C@@H]2c3cccc4c3c(cn4C)C[C@H]21 , then report it.
Response: -0.56

Prompt: Report value: log10(Ki), system: 5-hydroxytryptamine receptor 1A (Rattus norvegicus, UniProt P19327), molecule: CC[C@@H](CO)NC(=O)[C@@H]1C=C2c3cccc4c3c(cn4C)C[C@H]2N(C)C1
Response: -0.26

Prompt: GET log10(Ki) where system = 5-hydroxytryptamine receptor 1A (Rattus norvegicus, UniProt P19327) and item = CSc1ccc2c(c1)C(N1CCN(C)CC1)Cc1ccccc1S2 (stereo unspecified)
Response: -2.06

Prompt: Name the value of log10(Ki) reported for CN1C[C@@H](NS(=O)(=O)N(C)C)C[C@@H]2c3cccc4c3c(cn4C)C[C@H]21 when tested on 5-hydroxytryptamine receptor 1A (Rattus norvegicus, UniProt P19327).
Response: -0.26

Prompt: Write down the reported log10(Ki) (system: 5-hydroxytryptamine receptor 1A (Rattus norvegicus, UniProt P19327)) of CN1C[C@H](C(=O)N[C@]2(C)O[C@@]3(O)[C@@H]4CCCN4C(=O)[C@H](Cc4ccccc4)N3C2=O)C=C2c3cccc4[nH]cc(c34)C[C@H]21
Response: -2.52

Pending molecule:
Prompt: Under 5-hydroxytryptamine receptor 1A (Rattus norvegicus, UniProt P19327), report log10(Ki) for CC(C)NCC(O)COc1cccc2[nH]ccc12 (stereo unspecified)
Response: -1.51

---

Reported pKi values, 5-hydroxytryptamine receptor 7 (Rattus norvegicus).
The meaning of pKi here: minus log10 of the concentration in molar units.

Examples from the recorded data:
Prompt: // output pKi; input CC(C)NCC(O)COc1cccc2[nH]ccc12 (centres undefined) ; system 5-hydroxytryptamine receptor 7 (Rattus norvegicus)
Response: 6.26

Prompt: GET pKi | system: 5-hydroxytryptamine receptor 7 (Rattus norvegicus) | item: CN1C[C@H](CNC(=O)OCc2ccccc2)C[C@@H]2c3cccc4c3c(cn4C)C[C@H]21
Response: 7.80

Prompt: Recall the reported pKi of CN1C[C@H](C(=O)N[C@]2(C)O[C@@]3(O)[C@@H]4CCCN4C(=O)[C@H](Cc4ccccc4)N3C2=O)C=C2c3cccc4[nH]cc(c34)C[C@H]21 when tested on 5-hydroxytryptamine receptor 7 (Rattus norvegicus).
Sequence (P32305 whole entry): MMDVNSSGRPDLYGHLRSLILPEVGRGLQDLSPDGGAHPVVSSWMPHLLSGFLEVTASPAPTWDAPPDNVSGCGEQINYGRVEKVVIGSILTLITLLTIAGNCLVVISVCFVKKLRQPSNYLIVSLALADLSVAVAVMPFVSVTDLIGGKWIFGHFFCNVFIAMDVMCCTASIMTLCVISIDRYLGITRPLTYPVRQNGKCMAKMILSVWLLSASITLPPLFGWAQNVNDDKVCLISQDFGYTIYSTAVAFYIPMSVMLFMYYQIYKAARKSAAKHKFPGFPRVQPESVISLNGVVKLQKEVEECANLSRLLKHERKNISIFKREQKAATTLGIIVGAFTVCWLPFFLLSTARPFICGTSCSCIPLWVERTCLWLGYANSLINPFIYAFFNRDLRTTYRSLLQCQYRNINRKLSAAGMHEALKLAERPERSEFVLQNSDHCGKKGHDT
Response: 7.77

Next, consider the following molecule.
Prompt: Param request: pKi | system 5-hydroxytryptamine receptor 7 (Rattus norvegicus) | item NCCc1c[nH]c2ccc(C(N)=O)cc12 [[3H]-5-carboxamidotryptamine]
Response: 9.35

---

molecular target: 5-hydroxytryptamine receptor 7 (Rattus norvegicus)
pKi values by entry
Quick note: pKi means taking -log10 of the concentration in moles per liter.

Prompt: Fetch value of pKi on 5-hydroxytryptamine receptor 7 (Rattus norvegicus) for NCCc1ccc(O)c(O)c1 .
Response: 6.26

Prompt: Under 5-hydroxytryptamine receptor 7 (Rattus norvegicus): report pKi of O=C1CC2(CCCC2)CC(=O)N1CCCCN1CCN(c2ncccn2)CC1 .
Response: 6.43

Prompt: Find the measured pKi of CCCN(CCC)C1CCc2cccc(O)c2C1 (configuration not stated) with 5-hydroxytryptamine receptor 7 (Rattus norvegicus) as test system.
Response: 7.28

Others:
Prompt: State measured pKi of the compound CC[C@@H](CO)NC(=O)[C@@H]1C=C2c3cccc4c3c(cn4C)C[C@H]2N(C)C1 with 5-hydroxytryptamine receptor 7 (Rattus norvegicus).
Response: 7.77

Prompt: // output pKi; input CNS(=O)(=O)Cc1ccc2[nH]cc(CCN(C)C)c2c1 ; system 5-hydroxytryptamine receptor 7 (Rattus norvegicus)
Response: 6.26

Prompt: Provide pKi, tested on 5-hydroxytryptamine receptor 7 (Rattus norvegicus), for CN1C[C@@H](NS(=O)(=O)N(C)C)C[C@@H]2c3cccc4c3c(cn4C)C[C@H]21 .
Response: 8.03

Prompt: Give the observed pKi of COc1cc(N)c(Cl)cc1C(=O)NC1CN2CCC1CC2 (configuration not stated) [ZACOPRIDE,R] for 5-hydroxytryptamine receptor 7 (Rattus norvegicus).
Response: 6.26
